- MEASURED TARGET: T1, COVID-19 nucleocapsid protein (N-protein) (severe acute respiratory syndrome …, UniProt P0DTC9 1-419)
- T1 construct: also called nucleocapsid protein (N-protein) of severe acute respiratory syndrome coronavirus 2 (SARS-CoV-2)
- TEST NAME: bio-layer interferometry (BLI)
Entries are grouped by Kd into these classes: low group: < 0.4 µM; middle group: ≥ 0.4 µM and < 2 µM; high group: ≥ 2 µM

Asked: # bin lookup: classify ACSEGWCFRENRYQVCA (Ci, Cii and Ciii cysteines covalently bound to TATA scaffold) [BCY16565] by its Kd
Given back: middle group

Asked: Now this one: ACTNRNFCQNRYSVTCA (Ci, Cii and Ciii cysteines covalently bound to TBCU scaffold) [BCY16568]
Given back: high group

Asked: Now this one: ACTVDVCLLTGLHIPCA (Ci, Cii and Ciii cysteines covalently bound to TATA scaffold) [BCY19454]
Given back: high group

Asked: Now this one: ACTSYFCNNRFTLNTCA (Ci, Cii and Ciii cysteines covalently bound to TBMT scaffold) [BCY16566]
Given back: middle group

Asked: Now this one: ACSTDVCKLTGIAIPCA (Ci, Cii and Ciii cysteines covalently bound to TATA scaffold) [BCY18169]
Given back: middle group

Next:
Asked: # bin lookup: classify ACSIGYCPVTDTFCA (Ci, Cii and Ciii cysteines covalently bound to TBMT scaffold) [BCY17641] by its Kd
Given back: middle group

Asked: Now this one: ACTTDFCNDRYITELCA (Ci, Cii and Ciii cysteines covalently bound to TBMT scaffold) [BCY17632]
Given back: high group

Asked: Now this one: ACFRGYCPQTNLFCA (Ci, Cii and Ciii cysteines covalently bound to TBMT scaffold) [BCY16573]
Given back: middle group

Asked: Now this one: ACTNLQWAMCYITGNCA (Ci, Cii and Ciii cysteines covalently bound to TATA scaffold) [BCY18172]
Given back: high group

Asked: Now this one: ACTTDFCNNRYVVNLCQNKS (Ci, Cii and Ciii cysteines covalently bound to TBMT scaffold) [BCY18982]
Given back: low group

Asked: Now this one: ACTTDFCNNRYVVNQCSYPR (Ci, Cii and Ciii cysteines covalently bound to TBMT scaffold) [BCY18973]
Given back: low group

Reference source for all entries: patent US20240083945A1
